Experiment: log P by HPLC
Type: physicochemical
Conditions: HPLC, gradient method, acetonitrile/0.1% aqueous phosphoric acid; EEC directive 79/831 Annex V. A8
Reported Property: logP

Compound	Measured Result
CN(C)c1c(-c2ccc(F)cc2F)c(Cl)nc2nc(C3CC3)nn12	3.06
CCc1nc2nc(Cl)c(-c3c(F)cc(F)cc3F)c(N(CC)CC)n2n1	3.71
Cc1nc2nc(Cl)c(-c3ccc(F)cc3Cl)c(NCC(F)F)n2n1	2.54
Cc1nc2nc(Cl)c(-c3c(F)cc(F)cc3F)c(N3CCOCC3)n2n1	2.43

P = CCN(CC)c1c(-c2c(F)cc(F)cc2F)c(Cl)nc2nc(C)nn12
Q = CC1CCN(c2c(-c3ccc(F)cc3F)c(Cl)nc3nc(C(F)(F)F)nn23)CC1
Asked: Kindly compare P with Q and tell me which has the lower logP figure. Your answer should be the label of the entry you select.
Given back: P

###

Experiment: log P by HPLC
Type: physicochemical
Settings: HPLC, gradient method, acetonitrile/0.1% aqueous phosphoric acid; EEC directive 79/831 Annex V. A8
Reported Property: logP

Below: 3 compounds and their reported logP.
Compound	Measured Result
CCc1nc2nc(Cl)c(-c3c(F)cc(F)cc3F)c(N3CCC(C(F)(F)F)CC3)n2n1	3.99
Fc1ccc(Nc2c(-c3ccc(F)cc3F)c(Cl)nc3nc(C4CC4)nn23)cc1	3.27
CC(Nc1c(-c2ccc(F)cc2Cl)c(Cl)nc2nc(C3CC3)nn12)C(F)(F)F (racemic) [compound 748]	3.77

a = Fc1cc(F)c(-c2c(Cl)nc3nc(C(F)(F)F)nn3c2NC2CCCC2)c(F)c1
b = Cc1nc2nc(Cl)c(-c3c(F)cc(F)cc3F)c(N3CCCCN3)n2n1
Asked: Higher logP: a or b ? Your answer should be the label of the entry you select.
Given back: a

###

Assay: log P by HPLC
Assay type: physicochemical
Details: HPLC, gradient method, acetonitrile/0.1% aqueous phosphoric acid; EEC directive 79/831 Annex V. A8
Reported Property: logP

Compound	Measured Result
Cc1nc2nc(Cl)c(-c3c(F)cccc3F)c(NC3CCCC3)n2n1	2.97
Fc1ccc(-c2c(Cl)nc3nc(C(F)(F)F)nn3c2N2CCC3(CC2)OCCO3)c(F)c1	3.8
Cc1nc2nc(Cl)c(-c3ccc(F)c(Cl)c3)c(NC(C)C)n2n1	3.01
CC(Nc1c(-c2ccc(Cl)cc2Cl)c(Cl)nc2nc(C3CC3)nn12)C(=O)O (stereo not shown)	2.7
Cc1nc2nc(Cl)c(-c3c(F)cc(F)cc3F)c(N3OCCCC3C)n2n1 (stereo not shown)	3.42
Fc1cc(F)c(-c2c(Cl)nc3nc(C4CC4)nn3c2N2CCC(F)CC2)c(F)c1	3.68
Cc1nc2nc(Cl)c(-c3ccc(F)cc3F)c(N3OCCC3C)n2n1 (stereo not shown)	2.79

###

Assay: log P by HPLC
Format: physicochemical
Conditions: HPLC, gradient method, acetonitrile/0.1% aqueous phosphoric acid; EEC directive 79/831 Annex V. A8
Reported Property: logP

Below: 2 compounds and their reported logP.
Compound	Reported Property	Measured Result
Cc1nc2nc(Cl)c(-c3c(F)cccc3F)c(N(C)Cc3ccco3)n2n1 [compound 566]	logP	2.97
CN(CC1OCCO1)c1c(-c2ccc(F)cc2F)c(Cl)nc2nc(C3CC3)nn12 [compound 663]	logP	3.1

A = Fc1cc(F)c(-c2c(Cl)nc3nc(C4CC4)nn3c2N2CC=CCO2)c(F)c1 [compound 786]
B = COCCNc1c(-c2ccccc2Cl)c(Cl)nc2nc(C)nn12 [compound 236]
Asked: Kindly compare A with B and tell me which has the lower logP figure. Your answer should be the label of the entry you select.
Given back: B
(B: 2.3, A: 3.56)
